Listed next: entries and their corresponding Kd.
- experimental-target: T1, JEV SA14-14-2 envelope (E) protein on virions (Japanese encephalitis virus strain …, UniProt P0DOH7 295-794)
- T1 chain: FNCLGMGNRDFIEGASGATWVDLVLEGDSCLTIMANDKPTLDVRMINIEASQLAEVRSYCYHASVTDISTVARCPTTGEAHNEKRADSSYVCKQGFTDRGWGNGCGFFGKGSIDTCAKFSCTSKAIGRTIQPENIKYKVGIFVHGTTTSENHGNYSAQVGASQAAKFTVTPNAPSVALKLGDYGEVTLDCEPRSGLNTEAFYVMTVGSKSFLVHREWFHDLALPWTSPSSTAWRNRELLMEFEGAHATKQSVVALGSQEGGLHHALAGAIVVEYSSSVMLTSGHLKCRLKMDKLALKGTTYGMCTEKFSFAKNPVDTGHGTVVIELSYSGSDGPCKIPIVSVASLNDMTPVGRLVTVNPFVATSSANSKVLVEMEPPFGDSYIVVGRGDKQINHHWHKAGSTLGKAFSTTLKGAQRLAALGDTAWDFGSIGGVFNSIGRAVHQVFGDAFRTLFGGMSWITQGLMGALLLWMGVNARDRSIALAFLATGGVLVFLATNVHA
- assay-comment: ELISA on JEV virions captured by HMAF, concentration at half-maximal binding
Entry format: amount then unit.

Field: example entries. Status: answers known.
>>> reading("humanized MAb E3 (antibody, V domains shown) VH: EVQLLESGPGLVRPSQTLSLTCAVSGASISGPLSYWTWIRQSPGKKMEHIGSMFYSGNTYYNPSLKGRITMSVDTSRNQFSLNLNSVTVADTAVYFCARRRETELFGLPIDYWGQGILVTVSS VL: ELTQSPATLSVSPGERATLSCRASERISSSYLSWYQQKPGQAPRLLMYGTSTRATGIPARFSGSGSGTDFTLTISSLQPEDFAVYFCQQDYNLPWTFGQGTKLEIKR")
"0.31 nM"
>>> reading("Fab A3 (Fab, V domains shown) VH: EVQLLESGAEVKKPGSSVRISCKVSGTPYSSYVMNWVRQAPGQGLEWMGVFVPSLDRALYAQNFQGRLSITADTTTTYMELTSLKFEDTAVYYCATDFSVGWLRPLDRWGQGTLVTVSS VL: ELQMTQSPSSLSASVGDRVTITCRASQGISNYLAWYQQKPGKAPKLLIYYASRLESGVPSRFSGSGSGTDYTLTISSLQPEDFATYYCQQYNSNPFTFGPGTKVDIKR")
"0.45 nM"

Kd for humanized MAb A3 (antibody, V domains shown) VH: EVQLLESGAEVKKPGSSVRISCKVSGTPYSSYVMNWVRQAPGQGLEWMGVFVPSLDRALYAQNFQGRLSITADTTTTYMELTSLKFEDTAVYYCATDFSVGWLRPLDRWGQGTLVTVSS VL: ELQMTQSPSSLSASVGDRVTITCRASQGISNYLAWYQQKPGKAPKLLIYYASRLESGVPSRFSGSGSGTDYTLTISSLQPEDFATYYCQQYNSNPFTFGPGTKVDIKR is 0.15 nM

Kd for Fab E3 (Fab, V domains shown) VH: EVQLLESGPGLVRPSQTLSLTCAVSGASISGPLSYWTWIRQSPGKKMEHIGSMFYSGNTYYNPSLKGRITMSVDTSRNQFSLNLNSVTVADTAVYFCARRRETELFGLPIDYWGQGILVTVSS VL: ELTQSPATLSVSPGERATLSCRASERISSSYLSWYQQKPGQAPRLLMYGTSTRATGIPARFSGSGSGTDFTLTISSLQPEDFAVYFCQQDYNLPWTFGQGTKLEIKR is 0.98 nM
